# Target or system: MBP-FoxP3dN (Mus musculus, UniProt Q99JB6 188-423)
# Sequence: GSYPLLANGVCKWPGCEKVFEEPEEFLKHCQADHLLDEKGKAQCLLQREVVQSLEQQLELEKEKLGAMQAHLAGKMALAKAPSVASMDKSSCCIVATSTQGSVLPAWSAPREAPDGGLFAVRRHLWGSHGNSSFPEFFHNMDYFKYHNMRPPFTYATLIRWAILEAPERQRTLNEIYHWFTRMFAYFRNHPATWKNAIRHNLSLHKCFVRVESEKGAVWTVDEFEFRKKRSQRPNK
# Assay summary: PD-seq (MBP pull-down with sequencing); 20 mM Tris-HCl pH 7.5, 100 mM NaCl, 1.5 mM MgCl2, 0.4 uM protein, 0.1 uM dsDNA library, 30 min, room temperature, amylose pull-down; high values mean tight binding
# Cond: protein: recombinant; tags: His6-MBP; chain copies: 2; dsDNA, one strand shown
Over roughly 16,000 sequences, “rpm ratio (pull-down/input)” has its median near 0.5; the highest 2% begin near 5.5. This excerpt belongs to a sample that is enriched for the highest values.
Quantity measured: binding signal

stdin: Report binding signal for GATGATTGTTCTCCCAGCTGATGAATTGAGTTAATCGAGTAAACAAATTTTCCTAATCTTTCTGTTCAAGCGCCATCTAC please.
stdout: 0.369 RPM ratio (pull-down/input)

stdin: Quick one: binding signal for GATGATTGTTCTCCCAGCTGATGAATTTGTTAGGTCGAGTAAACAAATTTTCCTAATCTTTCTGTTCAAGCGCCATCTAC ?
stdout: 5.73 RPM ratio (pull-down/input)

stdin: Field request: binding signal | item: GATGATTGTTCTCCCAGCTGATGAATTAGTTAGGTCGAGTAAACAAATTTTCCTAATCTTTCTGTTCAAGCGCCATCTAC
stdout: 1.51 RPM ratio (pull-down/input)
